Source listed as patent US9346815B2.

Measured EC50 by item
System: JAK1-dependent STAT6 phosphorylation downstream of IL-13 stimulation in BEAS-2B human bronchial epithelial cells
test-description: JAK1 pathway assay in BEAS-2B cells (IL-13-pSTAT6, MSD)
Assay type: cell-based
particulars: read-out: IL13-pSTAT6 EC50 (uM)_BEAS-2B
# output: bare number, implied unit µM

Study these solved cases before continuing.
* CN1CC[C@H]2[C@H](CCN2C(=O)Cn2cc(NC(=O)c3cnn4cccnc34)c(-c3cc(Cl)ccc3OC(F)F)n2)C1 [Example 48] | 0.0594
* CN[C@@H](C)Cn1cc(NC(=O)c2cnn3cccnc23)c(-c2cc(Cl)ccc2OC(F)F)n1 [Example 369] | 0.0093
* Cc1ccc(OCCN(C)C2CCN(C(=O)Cn3cc(NC(=O)c4cnn5cccnc45)c(-c4cc(Cl)ccc4OC(F)F)n3)CC2)cc1 [Example 110] | 0.0875
* N#CCCNC1CCC(=CCn2cc(NC(=O)c3cnn4cccnc34)c(-c3cc(Cl)ccc3OC(F)F)n2)CC1 (stereo not shown) [Example 421] | 0.0498
* CCCN1CCN(C(=O)Cn2cc(NC(=O)c3cnn4cccnc34)c(-c3cc(Cl)ccc3OC(F)F)n2)CC1 [Example 319] | 0.0577

q: For the molecule CC1(CN2CCN(C(=O)Cn3cc(NC(=O)c4cnn5cccnc45)c(-c4cc(Cl)ccc4OC(F)F)n3)CC2)COC1 [Example 318] , what EC50 is on record?
a: 0.0283

q: Okay, and O=C(Nc1cn(CC(=O)N2CC3CCCNC3C2)nc1-c1cc(Cl)ccc1OC(F)F)c1cnn2cccnc12 (stereo not shown) [Example 439] ?
a: 0.0353
